# measuredTarget: human EP2 prostanoid receptors (Homo sapiens)
# Construct: expressed in transfected cells; host or cells: HEK-293
# Sequence (P43116 whole entry): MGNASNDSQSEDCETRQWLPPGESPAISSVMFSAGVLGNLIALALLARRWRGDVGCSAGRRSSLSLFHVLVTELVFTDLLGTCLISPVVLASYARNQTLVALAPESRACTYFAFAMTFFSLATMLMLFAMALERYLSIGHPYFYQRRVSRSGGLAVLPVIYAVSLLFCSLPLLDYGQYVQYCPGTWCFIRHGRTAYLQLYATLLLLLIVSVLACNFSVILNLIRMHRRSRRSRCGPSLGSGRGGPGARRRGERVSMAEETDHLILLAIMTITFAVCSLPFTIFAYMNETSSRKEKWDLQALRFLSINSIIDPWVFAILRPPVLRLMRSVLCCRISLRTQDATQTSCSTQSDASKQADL
# methodDescription: Agonist activity at recombinant human EP2 prostanoid receptors (cAMP in HEK-293 clones)
# Assay type: cell-based
# experimentalSetup: functional classification at EP2
# Protocol: Culture media was Minimal essential media (MEM), supplemented with 10% foetal bovine serum, 100 U/ml penicillin, […] streptomycin, 2.5 μg/ml fungizone, 2mM glutamine. Cells were cultured to confluency (3-4 days) prior to use. […] Stimulated cAMP levels were determined by radioligand displacement binding. […] Antagonists affinities (pA2 values) were determined assuming a slope of unity and the […]-Schild equation, where pA2=log [concentration ratio-1]-log[antagonist].
assayMetric: activity (EP2 part)

Look over these answered cases.
O=C(Nc1cccc(Cc2nnn[nH]2)c1)c1cccc(-c2ccccc2)n1 [Compound 92]    EP2 Agonist
CC/C(=C\c1cccc(NC(=O)c2ccc(-c3ccccc3)o2)c1)C(=O)O [Compound 98]    EP2 Agonist
O=C(Nc1cccc(OCc2nnn[nH]2)c1)c1ccc(-c2ccccc2)o1 [Compound 173]    EP2 Agonist
CN(C)c1ccc(-c2ccc(C(=O)Nc3cccc(CC(=O)O)c3)o2)cc1 [Compound 14]    EP2 agonist
O=C(O)/C=C/c1cccc(NC(=O)c2ccc(-c3cccc(F)c3)o2)c1 [Compound 100]    EP2 Agonist

Requested field: activity (EP2 part). Item: O=C(O)COc1cccc(NC(=O)c2ccc(-c3ccccc3)o2)c1 [Compound 160]
EP2 Agonist

Item under review: O=C(O)CCc1cccc(NC(=O)c2cccc(-c3ccc(F)cc3)n2)c1 [Compound 159] . Reported activity (EP2 part)?
EP2 Agonist

Entry under review: O=C(Nc1cccc(Cc2nnn[nH]2)c1)c1cccc(-c2ccc(Cl)cc2)n1 [Compound 95] . Reported activity (EP2 part)?
EP2 Agonist

###

# measuredTarget: human EP2 receptor (Homo sapiens, UniProt P43116)
# Construct: expressed in transfected cells
# Sequence (P43116 whole entry): as above
# methodDescription: Binding ability to human EP receptors ([3H]PGE2 displacement), EP2
# experimentalSetup: membranes expressing human EP2; [3H]PGE2 3 nM; Cheng-Prusoff; read-out: pKi (M) EP2 (converted)
assayMetric: Ki

O=C(O)CCc1cccc(NC(=O)c2ccc(-c3cccc(F)c3)o2)c1    < 1e-07 M
O=C(O)COc1cccc(NC(=O)c2cccc(-c3cccc(Cl)c3)n2)c1    < 1e-07 M
O=C(O)/C=C/c1cccc(NC(=O)c2cccc(-c3ccc(Cl)cc3)n2)c1    < 1e-07 M
CC/C(=C\c1cccc(NC(=O)c2ccc(-c3ccccc3)o2)c1)C(=O)O    < 1e-06 M
O=C(O)Cc1cccc(NC(=O)c2cccc(-c3ccccc3)n2)c1    < 1e-06 M

# lookup: Ki of O=C(O)Cc1cccc(NC(=O)c2ccc(-c3ccccc3C(F)(F)F)o2)c1
< 1e-05 M

Reported Ki for Cc1cc(-c2ccccc2)ccc1C(=O)Nc1cccc(CC(=O)O)c1 : what is it?
< 1e-06 M

Would you mind telling me what Ki value was observed for O=C(O)/C=C/c1cccc(NC(=O)c2ccc(-c3cccc(-c4ccccc4)c3)o2)c1 ?
< 1e-07 M

Using the record for O=C(O)/C=C/c1cccc(SCc2csc(-c3ccccc3)n2)c1 , report its Ki.
< 1e-07 M

Fill blank: measured Ki of the compound O=C(O)CCc1cccc(NC(=O)c2ccc(-c3cc(Cl)cc(Cl)c3)o2)c1 is ____.
< 1e-07 M

Sample O=C(O)COc1cccc(NC(=O)c2cccc(-c3ccc(Cl)cc3)n2)c1 — what was its Ki?
< 1e-07 M

Request the reported Ki associated with O=C(O)Cc1cccc(NC(=O)c2cc(-c3ccccc3)ccc2Cl)c1
< 1e-06 M

Fill in the blank: the reported Ki of O=C(O)/C=C/c1cccc(NC(=O)c2ccc(C34CC5CC(CC(C5)C3)C4)o2)c1 is ____.
< 1e-06 M

# get_value(readout='Ki', item= O=C(Nc1cccc(CCO)c1)c1ccc(-c2ccccc2)o1 )
< 1e-05 M

Value lookup for Ki; key = O=C(O)/C=C/c1cccc(NC(=O)c2ccc(-c3ccc4c(c3)OCO4)o2)c1
< 1e-07 M

Item under review: O=C(Nc1cccc(Cc2nnn[nH]2)c1)c1cccc(-c2cccc(F)c2)n1 . Reported Ki?
< 1e-07 M

Record request: Ki value, item O=C(O)Cc1cccc(C(=O)Nc2cccc(-c3ccccc3)c2)c1
< 1e-06 M

Return reported Ki; argument: COc1cccc(-c2ccc(C(=O)Nc3cccc(CC(=O)O)c3)o2)c1
< 1e-06 M
